Reported cleaved RNA product abundance by item:
system: Bacillus subtilis; test: cleaved RNA product abundance (RNA/gDNA barcode ratio) relative to median wild-type variant (ratio to wild type); higher = more accumulation of the downstream cleavage product; details: experiment (reporter, strain, medium): exp 4a: truncated aprE reporter, strain BJT201 with 2% xylose (RNase J1 expressed); cleavage site: cggR-gapA (positions -7 to +36 mutated)

{"columns": ["Biosequence", "cleaved RNA product abundance"],
 "data": [
  ["ACAGACGAAGGAGCCGCGAAGTAGTTATTAAGGGATGAATAATCCCTCAATATAAATATCTCTCACTTATTTAAA", 1.29],
  ["ACAGACGAAGGAGCCGCAAAGAAGTTATTAAGGGATGAATAAATCCTCAATATAAATATCTCTCACTTATTTAAA", 0.306],
  ["ACAGACGAAGGAGCCGCAAAGAACTTACTAAGGGATGAATAATCCCTCAATATAAATATCTCTCACTTATTTAAA", 0.237],
  ["ACAGACGAAGGAGCCGCAAAGAAGTTATTAAGGGAAGAATAATCCCTTAATATAAATATCTCTCACTTATTTAAA", 0.952],
  ["ACAGACGAAGGAGCCGCAAAGAAGTTATTCAGCGATGAATAATCCCTCAATATAAATATCTCTCACTTATTTAAA", 0.0886]
]}
